molecular target: MyD88^TIR (Homo sapiens); construct: MyD88 (residues 148–296); 6xHis; made in house; host or cells: E. coli BL21 (DE3); experiment: T‐Surf phage library (P8 and P3) selection against MyD88^TIR, four rounds, NGS read counts; assay type: binding; details: P8 library, selection against MyD88 TIR; rank by count after grouping
Would you mind telling me the reported P8_MyD88 Rank (after) of each entry?
Kindly provide the number alone.

Give the reported P8_MyD88 Rank (after) for this sequence. `PYLLWVFDDEDGQELF`
199

Tell me its P8_MyD88 Rank (after) given `WFWQKLNYAMPHLARL` as the entry.
200

Supply measured P8_MyD88 Rank (after) of `WALNELLEIMQAKRDL` in your reply.
258

Give the reported value of P8_MyD88 Rank (after) for this record: `EWFYERLFSQMRKDIK`
275

Give the reported value of P8_MyD88 Rank (after) for this record: `YLLLGVFQTIFARRTA`
276

Look up and report measured P8_MyD88 Rank (after) for this entry: `NYATSRWALDELVRIF`
227

Please list P8_MyD88 Rank (after) recorded for the sequence `LGYHWIDWSILWALK`
231

Please supply the value of reported P8_MyD88 Rank (after) for the item `AHDELWVLRYLLPTLE`
205

State its P8_MyD88 Rank (after) for this sequence: `LKVESWRQALEKAGKL`
211

---

molecular target: MAL^TIR (Homo sapiens); construct: MAL (residues 79–221); 6xHis; made in house; host or cells: E. coli BL21 (DE3); assay: T‐Surf phage library (P8 and P3) selection against MAL^TIR, four rounds, NGS read counts; format: binding; settings: P3 library, selection against MAL, rank after grouping
property: P3_MAL Rank (after)
Give only the figure.

Report P3_MAL Rank (after), nothing else, for this sequence: `RHHRGPLGSDLQYHME`
521

State its P3_MAL Rank (after): `NQCTDALTAAVVLSGW`
528

Item `YAFTGHLHRYLLQRGG` : provide P3_MAL Rank (after)
543

# return recorded P3_MAL Rank (after) for entry `VRVVDDGSVSPLEM`
512

Given `NQWRNALTAAANLRL` , respond with its P3_MAL Rank (after).
550

Answer with the recorded P3_MAL Rank (after) of `ARFKDMIINKWRTALTQAAN` only.
513

Give the value of P3_MAL Rank (after) reported for the following: `PYLRTQVLNYLMRTKN`
499

Quick one: give measured P3_MAL Rank (after) for `HPKGSYREALAEHEKR`
503

Return value of P3_MAL Rank (after) for input `KNLFNEMVSKNIRTYM` , no commentary.
567

Give reported P3_MAL Rank (after) value for `YAFTGHLHRYLVQRFA`
514

Please indicate P3_MAL Rank (after) recorded for `KLQECRDTLRKIADFF`
494

Give me measured P3_MAL Rank (after), please, for this sequence: `RFFQNKMRYHLQQLQH`
487

Give the value of P3_MAL Rank (after) reported for the following: `RSFRDRLWRHLQLNEK`
506

Report measured P3_MAL Rank (after); entry is `DWIREQLRPALKKRLP`
520

Assign P3_MAL Rank (after) to the following record: `NQWSNELTAAANLRGW`
575

Please report the measured P3_MAL Rank (after) for `RGVLSRLRHHLQAKDH`
551

---

target: MAL^TIR (Homo sapiens, UniProt P58753); construct: MAL (residues 79–221); 6xHis; made in house; host or cells: E. coli BL21 (DE3); assay: T‐Surf phage library (P8 and P3) selection against MAL^TIR, four rounds, NGS read counts; format: binding; conditions: P3_MAL: rank by count before grouping
Sequence (P58753 79-221): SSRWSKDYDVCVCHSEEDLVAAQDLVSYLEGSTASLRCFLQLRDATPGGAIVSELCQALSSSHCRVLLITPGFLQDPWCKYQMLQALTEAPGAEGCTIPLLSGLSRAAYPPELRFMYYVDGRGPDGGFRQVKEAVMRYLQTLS
Kindly supply the reported Rank (before) values for the records listed here.
Quick one: just the number, no unit, thanks!

Query Rank (before) for `ARLPAICIVIWCSVA`
170

Dear colleague, please send me the reported Rank (before) for `LKWGDPYFGANCVMR` when you can.
415

Identify the reported Rank (before) for the following entry. `HLLDKLRSNGISPFID`
2772

Given `YAFTGHQHNYMVQRGV` , respond with its Rank (before).
1447

Output Rank (before) of `YTALTNSASHTFRGND`
1551

Report Rank (before), nothing else, for this sequence: `YAFTGHLHQFHSWV`
1431

Fill in reported Rank (before) for this entry: `RLRKWKEALQQFHSWV`
2548

Supply Rank (before) value. Item: `RLLKWKEALHQFHSSL`
2515

Report measured Rank (before); entry is `NQCHNAITADMNQTRL`
3424

Provide only the value of recorded Rank (before) for `SSFREGLWRLPELCKK`
3163

Tell me measured Rank (before) for `KERPFGAQRAEKWRTALT` please.
3611

Give me measured Rank (before), please, for this sequence: `RHFAGLLYDRLTKTGV`
2563

Please give the documented Rank (before) of `RFWERLRYMMPDSSL`
2320

Give me measured Rank (before), please, for this sequence: `NQWRNALTKVANLV`
124

Identify measured Rank (before) associated with `LVAHGISNKLKIFATI`
2092

Report Rank (before) for `NQCRNALTAAANLKGW`
3327

For `DIQRSRFKDDADLVGQ` , write its Rank (before).
1958

Identify measured Rank (before) associated with `RGFREGLWRLLELSKK`
111

---

I'd appreciate it if you could supply Rank (after) values for the items below.
target: MyD88^TIR (Homo sapiens, UniProt Q99836); construct: MyD88 (residues 148–296); 6xHis; made in house; host or cells: E. coli BL21 (DE3); assay: T‐Surf phage library (P8 and P3) selection against MyD88^TIR, four rounds, NGS read counts; assay type: binding; settings: P8_MyD88: rank by NGS read count after grouping
Sequence (Q99836 148-296): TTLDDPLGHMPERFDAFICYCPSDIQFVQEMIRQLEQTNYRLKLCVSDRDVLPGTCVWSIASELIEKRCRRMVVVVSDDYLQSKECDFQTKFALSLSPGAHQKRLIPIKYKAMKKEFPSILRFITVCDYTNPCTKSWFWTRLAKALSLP

Annotate the sequence `WDFASNMAQVWERLYY` with its measured Rank (after).
890

Determine its reported Rank (after): `ELDFSHFWLFDGQAGGAA`
917

Give Rank (after) for the following sequence: `LGYHWKEWEHFVGIED`
1028

Please report Rank (after) for the following sequence: `YASSSWALDELWLILEQR`
961

State its Rank (after) for this sequence: `YASSSWYLDELCIFC`
951

Answer with the recorded Rank (after) of `PQDLDWFYERLESLF` only.
1019

For the sequence `DLLLCVFQTFFARLTE` , give its reported Rank (after).
948

Tell us which Rank (after) value is on record for `YASSSWELDELLRIPY`
966

Supply measured Rank (after) of `FISDLYEALTRAGILA` in your reply.
964

Find the measured Rank (after) of `EPPGLDWVYERLVVLF` and report it.
927

Please supply the value of reported Rank (after) for the item `YPQDLEWLYERLVSPV`
945

Note Rank (after) for the sequence shown: `ELDFASNMEQFWDRLYY`
935

Could you please provide reported Rank (after) for `DSFFWGRLLYSLHVTE` ? Thanks!
970

Provide Rank (after) value for the following sequence: `DPQLLDWFYVRLVSLL`
1001

Give me measured Rank (after), please, for this sequence: `LGYHWVDWGCFVGIAD`
958

Provide only the value of recorded Rank (after) for `WDFASNMNSFGIVCI`
974

Supply Rank (after) value. Item: `VANILGYHWFDWEYFVVIGD`
875

---

biological target: MAL^TIR (Homo sapiens); construct: MAL (residues 79–221); 6xHis; made in house; host or cells: E. coli BL21 (DE3); assay: T‐Surf phage library (P8 and P3) selection against MAL^TIR, four rounds, NGS read counts; assay type: binding; details: P3_MAL: rank by count before grouping
For each entry below, report its Rank (before) value.
Give the figure by itself; no unit, no explanation.

Identify measured Rank (before) corresponding to `PNLRTNVMNYLMRTKT`
2692

Let me know recorded Rank (before) for `PNLRTKVLNSLMSTKT` , thanks.
2709

Indicate its recorded Rank (before); the sequence in question is `AFSNNEYKCVETALMN`
1806

Kindly indicate its recorded Rank (before). Item: `LLIYRFVKKRNYLLGH`
2085
